The reported measurements were obtained from patent US20180244785A1.

List of pIC50 values.
# testSystem: T1, 6His-Fc-FGFR1c (human, UniProt P11362 141-376)
# T1 construct: not shown: 6His tag and Fc as named in '6His-Fc-FGFR'
# T1 sequence: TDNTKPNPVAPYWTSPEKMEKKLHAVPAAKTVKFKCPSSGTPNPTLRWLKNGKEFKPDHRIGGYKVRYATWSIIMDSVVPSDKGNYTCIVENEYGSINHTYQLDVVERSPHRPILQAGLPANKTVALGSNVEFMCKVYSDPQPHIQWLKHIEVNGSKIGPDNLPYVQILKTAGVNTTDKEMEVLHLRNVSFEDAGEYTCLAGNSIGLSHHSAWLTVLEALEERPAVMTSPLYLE
# testSummary: competition ELISA, blocks 6His-Fc-FGFR1c binding to coated FGF2
Answer as the number alone; pIC50 is minus log10 of concentration in mol/L.

binder	pIC50
Ab90 (antibody, human IgG2, kappa, V domains shown, format in the assays not spelled out) VH: EVQLLESGGGVVQPGRSLRLSCAASGFTFSSYAMHWVRQAPGKGLEWVAVISYDGSNKYYADSVKGRFTISRDNSKNTLSLQMNSLRVEDTAIYYCVRGAGRGYPYGPDGFDIWGQGTMVTVSS VL: DIVMTQTPLSLSVTPGQPASISCTSSRSLLHSDGKTYVYWYVQKSGQPPQLLIYELSNRFSGVPDRFSGSGSRTDFTLKISRVEAEDVGVYYCMQYVEVPLTFGGGTKVEIKR	8.38
Ab70 (antibody, human IgG2, kappa, V domains shown, format in the assays not spelled out) VH: EVQLLESGGGVVQPGRSLRLSCAASGFTFSSYAMHWVRQAPGKGLEWVAVISYDGSNKYYADSVKGRFTISRDNSKNTLSLQMNSLRVEDTAIYYCVRGAGQGYPYGPDGFDIWGQGTMVTVSS VL: DIVMTQTPLSLSVTPGQPASISCKSSRSLLHSDGKTYVYWYVQKSGQPPQLLIYELSNRFSGVPDRFSGSGSRTDFTLKISRVEAEDVGVYYCMQYIEAPLTFGGGTKVEIKR	8.34

Now take the following binder into account.
So for Ab19 (antibody, human IgG2, kappa, V domains shown, format in the assays not spelled out) VH: EVQLLESGGGVVQPGRSLRLSCAASGFTFSSYAMHWVRQAPGKGLEWVAVISYDGSNKYYADSVKGRFTISRDNSKNTLSLQMNSLRVEDTAIYYCVRGAGRGFTLGPDGFDIWGQGTMVTVSS VL: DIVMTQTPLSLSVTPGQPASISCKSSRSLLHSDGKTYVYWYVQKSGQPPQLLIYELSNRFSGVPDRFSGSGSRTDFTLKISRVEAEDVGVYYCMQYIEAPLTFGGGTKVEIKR , the logged pIC50 turned out to be 8.69
